Listed next: entries and their corresponding GI50.
# Test system: T-Rex 293 cell line SC3 cells lacking increased expression of androgen receptor protein
# TEST: Cellular growth inhibition, T-Rex 293 SC3 cells without doxycycline, CellTiter-Glo
# Type: cell-based
# CONDITION INFO: 72 h, T-Rex 293 SC3 cells not exposed to doxycycline, CellTiter-Glo 2.0
MEASURED QUANTITY: GI50

[
  {
    "COMPOUND": "CCNC(=O)C[C@@H]1N=C(c2ccc(N3CCC(N(C)C4CCN(c5ncc(C(=O)N[C@H]6C(C)(C)[C@H](Oc7ccc(C#N)c(Cl)c7)C6(C)C)cn5)CC4)CC3)cc2)c2c(sc(C)c2C)-n2c(C)nnc21",
    "OBS VALUE": "1500 to 3000 nM"
  },
  {
    "COMPOUND": "Cc1sc2c(c1C)C(c1ccc(C3CC(C4CCN(c5ncc(C(=O)N[C@H]6C(C)(C)[C@H](Oc7ccc(C#N)c(Cl)c7)C6(C)C)cn5)CC4)C3)cc1)=N[C@@H](Cc1ncco1)c1nnc(C)n1-2 (some centres unmarked)",
    "OBS VALUE": "> 3000 nM"
  },
  {
    "COMPOUND": "Cc1sc2c(c1C)C(c1ccc(O[C@H]3C[C@]4(CCCN(c5ncc(C(=O)N[C@H]6C(C)(C)[C@H](Oc7ccc(C#N)c(Cl)c7)C6(C)C)cn5)C4)C3)cc1)=N[C@@H](Cc1ncco1)c1nnc(C)n1-2",
    "OBS VALUE": "< 500 nM"
  },
  {
    "COMPOUND": "Cc1sc2c(c1C)C(c1ccc(CC[C@H]3CC[C@]4(CCCN(c5ncc(C(=O)N[C@H]6C(C)(C)[C@H](Oc7ccc(C#N)c(Cl)c7)C6(C)C)cn5)C4)C3)cc1)=N[C@H](Cc1ncco1)c1nnc(C)n1-2",
    "OBS VALUE": "> 3000 nM"
  },
  {
    "COMPOUND": "Cc1sc2c(c1C)C(c1ccc(CCCOC3CCN(c4ncc(C(=O)N[C@H]5C(C)(C)[C@H](Oc6ccc(C#N)c(Cl)c6)C5(C)C)cn4)CC3)cc1)=C[C@H](Cc1ccncn1)c1nnc(C)n1-2",
    "OBS VALUE": "< 500 nM"
  },
  {
    "COMPOUND": "Cc1sc2c(c1C)C(c1ccc(O[C@H]3CO[C@]4(CCCN(c5ncc(C(=O)N[C@H]6C(C)(C)[C@H](Oc7ccc(C#N)c(Cl)c7)C6(C)C)cn5)C4)C3)cc1)=N[C@@H](Cc1ncco1)c1nnc(C)n1-2",
    "OBS VALUE": "500 to 1500 nM"
  },
  {
    "COMPOUND": "Cc1sc2c(c1C)C(c1ccc(OC3CC4(C3)C[C@H](C)N(c3ncc(C(=O)N[C@H]5C(C)(C)[C@H](Oc6ccc(C#N)c(Cl)c6)C5(C)C)cn3)[C@@H](C)C4)cc1)=N[C@@H](Cc1ncco1)c1nnc(C)n1-2 (some centres unmarked)",
    "OBS VALUE": "> 3000 nM"
  },
  {
    "COMPOUND": "CCNC(=O)C[C@@H]1N=C(c2ccc(N3CCC(N(C)C4CN(c5ncc(C(=O)N[C@H]6C(C)(C)[C@H](Oc7ccc(C#N)c(Cl)c7)C6(C)C)cn5)C4)CC3)cc2)c2c(sc(C)c2C)-n2c(C)nnc21",
    "OBS VALUE": "500 to 1500 nM"
  },
  {
    "COMPOUND": "CCNC(=O)C[C@@H]1N=C(c2ccc(OCC3CN(c4ncc(C(=O)N[C@H]5C(C)(C)[C@H](Oc6ccc(C#N)c(Cl)c6)C5(C)C)cn4)C3)cc2)c2c(sc(C)c2C)-n2c(C)nnc21",
    "OBS VALUE": "500 to 1500 nM"
  },
  {
    "COMPOUND": "CCNC(=O)C[C@@H]1N=C(c2ccc(OCCN(C)c3ncc(C(=O)N[C@H]4C(C)(C)[C@H](Oc5ccc(C#N)c(Cl)c5)C4(C)C)cn3)cc2)c2c(sc(C)c2C)-n2c(C)nnc21",
    "OBS VALUE": "500 to 1500 nM"
  },
  {
    "COMPOUND": "Cc1sc2c(c1C)C(c1ccc([C@H]3C[C@H]([C@@H]4CCN(c5ncc(C(=O)N[C@H]6C(C)(C)[C@H](Oc7ccc(C#N)c(Cl)c7)C6(C)C)cn5)C4)C3)cc1)=N[C@@H](Cc1ncco1)c1nnc(C)n1-2",
    "OBS VALUE": "> 3000 nM"
  },
  {
    "COMPOUND": "Cc1sc2c(c1C)C(c1ccc(OC[C@H]3CC[C@@]4(CCCN(c5ncc(C(=O)N[C@H]6C(C)(C)[C@H](Oc7ccc(C#N)c(Cl)c7)C6(C)C)cn5)C4)C3)cc1)=N[C@@H](Cc1ncco1)c1nnc(C)n1-2",
    "OBS VALUE": "> 3000 nM"
  },
  {
    "COMPOUND": "Cc1sc2c(c1C)C(c1ccc(Cl)cc1)=N[C@@H](CC(=O)NCCCN1CCN(CCCOC3CCN(c4ncc(C(=O)N[C@H]5C(C)(C)[C@H](Oc6ccc(C#N)c(Cl)c6)C5(C)C)cn4)CC3)CC1)c1nnc(C)n1-2",
    "OBS VALUE": "1500 to 3000 nM"
  },
  {
    "COMPOUND": "CCNC(=O)C[C@@H]1N=C(c2ccc(CCCCOC3CCN(c4ncc(C(=O)N[C@H]5C(C)(C)[C@H](Oc6ccc(C#N)c(Cl)c6)C5(C)C)cn4)CC3)cc2)c2c(sc(C)c2C)-n2c(C)nnc21",
    "OBS VALUE": "500 to 1500 nM"
  },
  {
    "COMPOUND": "CCNC(=O)C[C@@H]1N=C(c2ccc(N3CCC(CN4CC(Oc5ncc(C(=O)N[C@H]6C(C)(C)[C@H](Oc7ccc(C#N)c(Cl)c7)C6(C)C)cn5)C4)CC3)cc2)c2c(sc(C)c2C)-n2c(C)nnc21",
    "OBS VALUE": "1500 to 3000 nM"
  },
  {
    "COMPOUND": "Cc1sc2c(c1C)C(c1ccc(C(F)(F)N3CC4(CCN(c5ncc(C(=O)N[C@H]6C(C)(C)[C@H](Oc7ccc(C#N)c(Cl)c7)C6(C)C)cn5)CC4)C3)cc1)=N[C@@H](Cc1ncco1)c1nnc(C)n1-2",
    "OBS VALUE": "> 3000 nM"
  },
  {
    "COMPOUND": "COC[C@@H]1N=C(c2ccc(OC3CC4(CCCN(c5ncc(C(=O)N[C@H]6C(C)(C)[C@H](Oc7ccc(C#N)c(Cl)c7)C6(C)C)cn5)C4)C3)cc2)c2c(sc(C)c2C)-n2c(C)nnc21",
    "OBS VALUE": "> 3000 nM"
  }
]
